ASSAYED TARGET: purified human autoBACE-2 (Homo sapiens, UniProt Q9Y5Z0)
Sequence (Q9Y5Z0 63-473 limits assumed): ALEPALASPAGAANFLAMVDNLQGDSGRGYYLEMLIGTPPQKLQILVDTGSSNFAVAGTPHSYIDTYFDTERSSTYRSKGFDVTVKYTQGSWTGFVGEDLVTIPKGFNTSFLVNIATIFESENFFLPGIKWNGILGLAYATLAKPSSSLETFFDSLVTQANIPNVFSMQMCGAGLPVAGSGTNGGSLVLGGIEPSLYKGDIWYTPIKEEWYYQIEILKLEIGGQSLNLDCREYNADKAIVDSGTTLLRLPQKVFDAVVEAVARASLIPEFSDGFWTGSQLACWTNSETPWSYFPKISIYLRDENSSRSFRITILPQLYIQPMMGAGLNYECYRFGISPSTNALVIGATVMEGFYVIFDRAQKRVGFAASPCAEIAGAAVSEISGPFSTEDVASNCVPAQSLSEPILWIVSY
pKi: −log10 of the molar value.
Everything with pKi lower than 7 is rule not met; everything else, including exactly 7, is rule met.

| COMPOUND | CAT |
| --- | --- |
| COc1cnc(C(=O)Nc2ccc3c(c2)[C@]2(CCC3)CS(=O)(=O)C(C)(C)C(=N)N2)c(C)n1 [Example G-9] | rule met |
| COc1ccc(C(=O)Nc2ccc3c(c2)[C@]2(COC3)CS(=O)(=O)C(C)(C)C(=N)N2)nc1 [Example E-10] | rule met |
| CC1(C)C(=N)N[C@@]2(CCOc3ccc(NC(=O)c4ncc(Cl)cc4F)cc32)CS1(=O)=O [Example C-17] | rule met |
| CC1(C)C(=N)N[C@@]2(CCCc3ccc(NC(=O)c4ccc(C#N)cn4)cc32)CS1(=O)=O [Example G-21] | rule met |
| COc1cnc(C(=O)Nc2ccc3c(c2)[C@]2(CCO3)CS(=O)(=O)C(C)(C)C(=N)N2)cn1 [Example C-23] | rule met |
| Cn1cc(Cl)c(C(=O)Nc2ccc3c(c2)[C@]2(CCC3)CS(=O)(=O)C(C)(C)C(=N)N2)n1 [Example G-6] | rule met |
| CC1(C)C(=N)N[C@@]2(COCc3ccc(NC(=O)c4ccc(C#N)cn4)cc32)CS1(=O)=O [Example E-14] | rule met |
| CC1(C)C(=N)N[C@@]2(COCc3ccc(NC(=O)c4cnc(C(F)(F)F)cn4)cc32)CS1(=O)=O [Example E-21] | rule not met |
| CC1(C)C(=N)N[C@@]2(COCc3ccc(NC(=O)c4cc5ccccn5n4)cc32)CS1(=O)=O [Example E-2] | rule not met |
| COc1cnc(C(=O)Nc2ccc3c(c2)[C@]2(CCC3)CS(=O)(=O)C(C)(C)C(=N)N2)c(C)c1 [Example G-8] | rule met |

Alright, here's another compound for you.
Q: # check: pKi of CC1(C)C(=N)N[C@@]2(COCc3ccc(NC(=O)c4ccc(OC(F)(F)F)cn4)cc32)CS1(=O)=O [Example E-3] is greater than or equal to 7
A: rule not met
